pIC50 by entry:
# TARGET ENTITY: NaV1.5 (Homo sapiens (Human))
# Sequence (Q14524 other isoform, or with tags, fused parts or gaps): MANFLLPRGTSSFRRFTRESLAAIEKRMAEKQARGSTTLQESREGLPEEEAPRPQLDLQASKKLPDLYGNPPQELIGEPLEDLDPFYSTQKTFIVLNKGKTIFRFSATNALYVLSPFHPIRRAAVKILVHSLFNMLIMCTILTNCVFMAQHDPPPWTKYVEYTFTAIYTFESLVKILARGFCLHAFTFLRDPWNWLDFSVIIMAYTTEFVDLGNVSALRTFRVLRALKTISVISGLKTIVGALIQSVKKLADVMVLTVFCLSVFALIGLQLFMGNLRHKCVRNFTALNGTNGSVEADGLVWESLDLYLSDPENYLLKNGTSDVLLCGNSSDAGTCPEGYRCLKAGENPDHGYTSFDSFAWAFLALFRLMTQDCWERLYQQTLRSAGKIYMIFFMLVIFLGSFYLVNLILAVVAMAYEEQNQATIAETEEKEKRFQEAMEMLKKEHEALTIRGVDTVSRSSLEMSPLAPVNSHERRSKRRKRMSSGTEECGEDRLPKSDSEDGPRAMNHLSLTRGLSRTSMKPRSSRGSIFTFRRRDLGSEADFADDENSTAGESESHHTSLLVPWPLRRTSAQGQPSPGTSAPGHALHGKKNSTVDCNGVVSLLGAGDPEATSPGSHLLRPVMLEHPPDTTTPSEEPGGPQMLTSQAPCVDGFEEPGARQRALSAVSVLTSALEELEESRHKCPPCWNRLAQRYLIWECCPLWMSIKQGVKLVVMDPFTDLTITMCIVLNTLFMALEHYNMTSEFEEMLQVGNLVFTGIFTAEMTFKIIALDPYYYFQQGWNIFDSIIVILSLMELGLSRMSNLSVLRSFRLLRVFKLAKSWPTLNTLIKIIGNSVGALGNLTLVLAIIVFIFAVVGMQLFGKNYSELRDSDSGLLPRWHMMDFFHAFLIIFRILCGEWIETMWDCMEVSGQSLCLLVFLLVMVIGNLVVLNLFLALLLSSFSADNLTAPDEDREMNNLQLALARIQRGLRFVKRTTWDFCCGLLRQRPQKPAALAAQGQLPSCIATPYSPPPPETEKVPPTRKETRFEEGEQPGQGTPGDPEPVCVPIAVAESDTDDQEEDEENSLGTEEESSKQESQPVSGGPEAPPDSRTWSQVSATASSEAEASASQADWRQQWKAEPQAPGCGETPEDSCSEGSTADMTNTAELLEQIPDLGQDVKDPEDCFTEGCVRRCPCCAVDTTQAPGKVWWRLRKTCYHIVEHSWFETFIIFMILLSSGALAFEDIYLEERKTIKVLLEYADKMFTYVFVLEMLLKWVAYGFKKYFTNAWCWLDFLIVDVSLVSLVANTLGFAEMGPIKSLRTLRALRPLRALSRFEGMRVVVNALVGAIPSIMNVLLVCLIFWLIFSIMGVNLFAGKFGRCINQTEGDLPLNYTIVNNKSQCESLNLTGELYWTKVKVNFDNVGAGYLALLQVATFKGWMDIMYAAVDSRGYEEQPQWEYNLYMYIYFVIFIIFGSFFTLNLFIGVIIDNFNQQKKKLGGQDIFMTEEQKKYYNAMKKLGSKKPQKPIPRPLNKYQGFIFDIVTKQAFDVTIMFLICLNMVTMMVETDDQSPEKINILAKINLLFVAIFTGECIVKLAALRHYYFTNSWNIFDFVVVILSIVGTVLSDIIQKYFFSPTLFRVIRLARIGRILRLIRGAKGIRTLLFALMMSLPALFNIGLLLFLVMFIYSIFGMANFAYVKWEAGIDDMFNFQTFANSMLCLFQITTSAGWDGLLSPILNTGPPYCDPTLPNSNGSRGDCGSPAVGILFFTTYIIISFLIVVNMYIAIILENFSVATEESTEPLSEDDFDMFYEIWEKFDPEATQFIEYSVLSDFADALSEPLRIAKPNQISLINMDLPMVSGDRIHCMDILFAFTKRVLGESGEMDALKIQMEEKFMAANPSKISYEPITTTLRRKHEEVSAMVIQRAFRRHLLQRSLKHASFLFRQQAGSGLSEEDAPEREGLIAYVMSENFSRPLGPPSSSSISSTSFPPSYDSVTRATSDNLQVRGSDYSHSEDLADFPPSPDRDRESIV
# PROCEDURE TEXT: Electrophysiological Assay (EP), patch voltage clamp, NaV1.5
# Format: cell-based
# RECORDED CONDITIONS: HEK-293 cells, whole-cell patch clamp, inactivated state; arithmetic mean
pIC50: −log10 of the molar value. Counter-ions that a name gives are not always drawn.
MEASURED ATTRIBUTE: pIC50

[
  {
    "MOLECULE": "CN(c1ccc(S(=O)(=O)Nc2ncns2)cc1Cl)[C@H]1CCN(Cc2ccccc2)C1 [Example 29, hydrochloride salt]",
    "TARGET ENTITY": "NaV1.5 (Homo sapiens (Human))",
    "MEASURED ATTRIBUTE": "pIC50",
    "MEASUREMENT": "< 5.00"
  },
  {
    "MOLECULE": "Cc1c(N(C)[C@H]2CCN(Cc3ccccc3)C2)cc(F)c(S(=O)(=O)Nc2cccc(F)n2)c1F [Example 298, formate]",
    "TARGET ENTITY": "NaV1.5 (Homo sapiens (Human))",
    "MEASURED ATTRIBUTE": "pIC50",
    "MEASUREMENT": "< 5.00"
  },
  {
    "MOLECULE": "CN(c1ccc(S(=O)(=O)Nc2cscn2)cc1Cl)[C@H]1CCN(Cc2cc(Cl)ccc2F)C1 [Example 254, formate]",
    "TARGET ENTITY": "NaV1.5 (Homo sapiens (Human))",
    "MEASURED ATTRIBUTE": "pIC50",
    "MEASUREMENT": 4.77
  },
  {
    "MOLECULE": "O=S(=O)(Nc1nccs1)c1ccc(N[C@@H]2CCN(Cc3ccccc3F)C2)c(Cl)c1",
    "TARGET ENTITY": "NaV1.5 (Homo sapiens (Human))",
    "MEASURED ATTRIBUTE": "pIC50",
    "MEASUREMENT": 6.06
  },
  {
    "MOLECULE": "CN(c1cc(F)c(S(=O)(=O)Nc2cscn2)cc1Cl)[C@H]1CCN(Cc2ccccc2)C1 [Example 38, 2,2,2-trifluoroacetate]",
    "TARGET ENTITY": "NaV1.5 (Homo sapiens (Human))",
    "MEASURED ATTRIBUTE": "pIC50",
    "MEASUREMENT": "< 4.52"
  },
  {
    "MOLECULE": "Cc1c(N(C)[C@H]2CCN(Cc3ccccc3)C2)cc(F)c(S(=O)(=O)Nc2cscn2)c1F [Example 103, 2,2,2-trifluoroacetate]",
    "TARGET ENTITY": "NaV1.5 (Homo sapiens (Human))",
    "MEASURED ATTRIBUTE": "pIC50",
    "MEASUREMENT": "< 5.00"
  }
]

Reference source for all entries: patent US10246453B2
